Target: human MC4R receptor (human, UniProt P32245 1-332)
Sequence (P32245 whole entry): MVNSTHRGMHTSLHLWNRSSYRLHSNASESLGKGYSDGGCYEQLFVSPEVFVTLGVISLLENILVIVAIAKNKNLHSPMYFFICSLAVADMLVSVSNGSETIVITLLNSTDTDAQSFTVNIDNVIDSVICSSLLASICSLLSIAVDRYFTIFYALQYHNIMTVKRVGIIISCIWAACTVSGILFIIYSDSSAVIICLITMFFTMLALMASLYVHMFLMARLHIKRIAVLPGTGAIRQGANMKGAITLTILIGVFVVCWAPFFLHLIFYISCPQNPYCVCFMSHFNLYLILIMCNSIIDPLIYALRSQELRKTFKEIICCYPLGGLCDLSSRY
Assay: cell-based or functional assay
Positions of bridges follow the written chain, without caps; N, C: chain ends. Non-standard residues stand in square brackets, D forms with d. Cit = NC(=O)NCCC[C@H](N)C(=O)O
parameter: cAMP EC50 (nM)
State the answer as a number, implicitly in nM.

Memo: Ac-RC[dA]R[dF]R[dW]C-NH2 (disulfide 2-8; SMILES CC(=O)N[C@@H](CCCNC(=N)N)C(=O)N[C@H]1CSSC[C@@H](C(N)=O)NC(=O)[C@@H](Cc2c[nH]c3ccccc23)NC(=O)[C@H](CCCNC(=N)N)NC(=O)[C@@H](Cc2ccccc2)NC(=O)[C@H](CCCNC(=N)N)NC(=O)[C@@H](C)NC1=O) [CTX-1263] , reported cAMP EC50: 6.5

Memo: Ac-RCG[Cit][dF]RWC-NH2 (disulfide 2-8) [CTX-1294] , reported cAMP EC50: 3.5

Data origin: patent US20240391954A1
